# Tested Target: Peroxisome proliferator-activated receptor alpha (Homo sapiens, UniProt Q07869)
# Sequence (Q07869 whole entry): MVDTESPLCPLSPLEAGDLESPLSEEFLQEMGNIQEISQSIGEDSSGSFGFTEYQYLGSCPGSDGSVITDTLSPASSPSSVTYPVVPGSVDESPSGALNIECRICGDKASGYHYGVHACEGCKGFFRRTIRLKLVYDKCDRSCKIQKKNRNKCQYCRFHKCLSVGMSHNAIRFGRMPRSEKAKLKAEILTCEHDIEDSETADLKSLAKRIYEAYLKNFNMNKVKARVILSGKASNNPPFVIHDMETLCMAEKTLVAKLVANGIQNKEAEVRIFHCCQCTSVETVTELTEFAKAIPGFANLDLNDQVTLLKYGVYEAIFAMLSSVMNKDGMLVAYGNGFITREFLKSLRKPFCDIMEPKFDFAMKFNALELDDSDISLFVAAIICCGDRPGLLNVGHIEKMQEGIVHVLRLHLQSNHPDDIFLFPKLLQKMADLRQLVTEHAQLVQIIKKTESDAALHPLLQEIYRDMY
# Test Description: Agonist activity at recombinant human GAL4-DBD fused PPARalpha LBD expressed in COS7 cells after 24 hrs by luciferase reporter gene assay
# Assay type: cell-based
pEC50: −log10 of the molar value.
Recorded Endpoint: pEC50

Examples from the recorded data:
Cc1cccnc1Oc1ccc2nc(COc3cccc(C(=O)O)c3)n(C)c2c1 < 5.00
Cc1cc(Cl)cnc1Oc1ccc2nc(COc3cccc(C(=O)O)c3)n(C)c2c1 < 5.00
Cc1ccc(C)c(Oc2ccc3nc(COc4cccc(C(=O)O)c4)n(C)c3c2)n1 < 5.00
Cc1cccc(Oc2ccc3nc(COc4cccc(C(=O)O)c4)n(C)c3c2)n1 < 5.00
Cn1c(COc2cccc(C(=O)O)c2)nc2ccc(Oc3ccccn3)cc21 < 5.00

Record Cn1c(COc2cccc(C(=O)O)c2)nc2cnc(Oc3ccc4c(c3)CCC4)cc21 . Reported pEC50: < 5.00
